TESTED_SYSTEM: High affinity cAMP-specific and IBMX-insensitive 3',5'-cyclic phosphodiesterase 8A (Homo sapiens)
Sequence (O60658 whole entry): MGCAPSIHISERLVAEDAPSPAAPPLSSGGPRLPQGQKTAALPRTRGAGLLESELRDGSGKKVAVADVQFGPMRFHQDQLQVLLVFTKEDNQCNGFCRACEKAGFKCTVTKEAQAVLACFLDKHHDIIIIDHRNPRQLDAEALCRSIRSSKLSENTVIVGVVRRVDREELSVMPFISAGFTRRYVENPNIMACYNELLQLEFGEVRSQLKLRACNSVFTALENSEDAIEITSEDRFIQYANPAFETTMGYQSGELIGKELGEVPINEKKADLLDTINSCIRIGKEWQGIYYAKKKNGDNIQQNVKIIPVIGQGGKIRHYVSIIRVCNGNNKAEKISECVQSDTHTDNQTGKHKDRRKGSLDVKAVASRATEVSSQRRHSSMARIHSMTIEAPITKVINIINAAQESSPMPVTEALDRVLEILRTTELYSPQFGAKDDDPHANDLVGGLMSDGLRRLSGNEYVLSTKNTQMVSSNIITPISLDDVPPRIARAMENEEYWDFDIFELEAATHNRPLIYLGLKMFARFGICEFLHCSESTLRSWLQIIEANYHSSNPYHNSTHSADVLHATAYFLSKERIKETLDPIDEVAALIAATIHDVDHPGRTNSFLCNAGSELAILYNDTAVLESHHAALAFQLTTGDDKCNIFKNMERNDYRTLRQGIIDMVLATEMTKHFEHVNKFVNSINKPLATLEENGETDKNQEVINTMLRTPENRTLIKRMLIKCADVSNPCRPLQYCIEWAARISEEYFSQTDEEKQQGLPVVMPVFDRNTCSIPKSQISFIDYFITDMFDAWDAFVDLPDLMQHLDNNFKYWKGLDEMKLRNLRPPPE
RECORDED_ENDPOINT: IC50
Param answer (str): number followed by unit.

Q: Can you share its IC50? I mean this compound: Cc1nc(N)c2nnn(C[C@H]3CN(Cc4nccs4)CCO3)c2n1
Ans: 1.9 nM

====

ASSAY_EXPLANATION: Clearance in iv dosed dog
Assay type: ADME, organism-based, Canis lupus familiaris
CONDITION_SET: in vivo
RECORDED_ENDPOINT: clearance (mL/min/kg)
Please state the figure in mL/min/kg; there is no need to write the unit.

Previously resolved entries follow.
> print(dat)
                            chemical.string  units.symbol  quantitative.readout
1  Nc1nc(C2CC2)nc2c1nnn2C[C@H]1CN(Cc2ncccn2)CCO1     mL/min/kg                     7
2  Cc1nc(N)c2nnn(C[C@H]3CN(Cc4cc(F)cc(F)c4)CCO3)c2n1     mL/min/kg                   4.8
3       CCc1nc(Cn2nnc3c(N)nc(C4CC4)nc32)cs1     mL/min/kg                    11
4  CCc1csc(CN2CCO[C@@H](Cn3nnc4c(N)nc(C)nc43)C2)n1     mL/min/kg                   5.6
5  Nc1nc(C(F)(F)F)nc2c1nnn2C[C@H]1CN(Cc2ccccn2)CCO1     mL/min/kg                   8.5
6  Cc1nc(N)c2nnn(C[C@H]3CN(Cc4nccs4)CCO3)c2n1     mL/min/kg                   3.5

Continue with the next compound.
Q: Any idea what clearance was measured for Nc1nc(C(F)(F)F)nc2c1nnn2C[C@H]1CCCO1 ?
Ans: 22

====

ASSAY_EXPLANATION: Fraction unbound in human plasma
Format: ADME, cell-free
RECORDED_ENDPOINT: fraction unbound
In your answer, state the number alone without any accompanying words.

Q: What value of fraction unbound has been recorded for this entry: Cc1nc(N)c2nnn(C[C@H]3CN(Cc4nccs4)CCO3)c2n1
Ans: 0.46

====

microsomal CLint values by entry
ASSAY_EXPLANATION: Intrinsic clearance in rat liver microsomes
Format: ADME, Microsome
CONDITION_SET: liver microsomes, read-out: CLH
Please state the figure in µL/min/mg; there is no need to write the unit.

See these solved cases before continuing.
> print(dat)
                            chemical.string  quantitative.readout
1  CCc1csc(CN2CCO[C@@H](Cn3nnc4c(N)nc(C)nc43)C2)n1                    22
2  CCc1cnc(N2CC[C@@H](Cn3nnc4c(N)nc(C5CC5)nc43)C2)nc1                   244

Q: # query: microsomal CLint of entry Nc1nc(C(F)(F)F)nc2c1nnn2C[C@H]1CN(Cc2ccccn2)CCO1
Ans: 36

====

ASSAY_EXPLANATION: Genotoxicity in micronucleus
RECORDED_ENDPOINT: Activity

Solved cases below.
> print(dat)
                            chemical.string     result
1  Cc1nc(N)c2nnn(C[C@H]3CN(Cc4nccs4)CCO3)c2n1  Non-toxic
2  CCc1csc(CN2CCO[C@@H](Cn3nnc4c(N)nc(C)nc43)C2)n1  Non-toxic
3  Nc1nc(C(F)(F)F)nc2c1nnn2C[C@H]1CN(Cc2ccccn2)CCO1  Non-toxic
4  Nc1nc(C2CC2)nc2c1nnn2C[C@H]1CN(Cc2ncccn2)CCO1  Non-toxic
5  Nc1nc(C2CC2)nc2c1nnn2C[C@H]1CN(Cc2nccs2)CCO1  Non-toxic

Now consider the entry below.
Q: Give its Activity value. Item: Cc1nc(N)c2nnn(C[C@H]3CN(Cc4cc(F)cc(F)c4)CCO3)c2n1
Ans: Non-toxic

====

ASSAY_EXPLANATION: Fraction unbound in rat plasma
Type: ADME, cell-free
RECORDED_ENDPOINT: fraction unbound
Reply with just the number.

Q: Given the compound Cc1nc(N)c2nnn(C[C@H]3CN(Cc4nccs4)CCO3)c2n1 , what is its reported fraction unbound?
Ans: 0.88

====

ASSAY_EXPLANATION: Intrinsic clearance in human liver microsomes
Type: ADME, Microsome
CONDITION_SET: read-out: CLH
Catalogue of microsomal CLint values
Give just the number in µL/min/mg; leave the unit off.

> print(dat)
                                   molecule  recorded.endpoint  quantitative.readout
1         Nc1nc(C2CC2)nc2c1nnn2C[C@H]1CCCO1   microsomal CLint                  11.9
2  Nc1nc(C2CC2)nc2c1nnn2C[C@H]1CN(Cc2ncccn2)CCO1   microsomal CLint                    16
3  Nc1nc(C2CCCCC2)nc2c1nnn2CC1CCCCO1 (stereo not given)   microsomal CLint                   100

Q: Returns the measured microsomal CLint for the input molecule. Input: CCc1nc(Cn2nnc3c(N)nc(C4CC4)nc32)cs1
Ans: 24.6

Q: Name the reported microsomal CLint value associated with the molecule CCc1cnc(N2CC[C@@H](Cn3nnc4c(N)nc(C5CC5)nc43)C2)nc1
Ans: 52

Q: Look up microsomal CLint: Nc1nc(C2CC2)nc2c1nnn2C[C@@H]1CCN(Cc2nccs2)C1
Ans: 30

Q: Would you kindly share the measured microsomal CLint for Cc1nc(N)c2nnn(C[C@H]3CN(Cc4cc(F)cc(F)c4)CCO3)c2n1 ?
Ans: 36

====

ASSAY_EXPLANATION: Volume of distribution at steady state in iv dosed dog
Format: ADME, organism-based, Canis lupus familiaris
CONDITION_SET: in vivo, read-out: Vdss
RECORDED_ENDPOINT: Vd (L/kg)
The answer is to be given in L/kg; state only the numeric part.

> print(dat)
                       chemical.string  recorded.endpoint  quantitative.readout
1  CCc1nc(Cn2nnc3c(N)nc(C4CC4)nc32)cs1                 Vd                   0.9

Here's the next entry for you.
Q: Request the reported Vd associated with Nc1nc(C(F)(F)F)nc2c1nnn2C[C@H]1CCCO1
Ans: 1.4

====

ASSAY_EXPLANATION: Dissociation constant, pKa of the compound
Assay type: physicochemical
RECORDED_ENDPOINT: pKa
Lab note: jot the number down without any unit.

Q: Tell me the measured pKa of Cc1nc(N)c2nnn(C[C@H]3CN(Cc4nccs4)CCO3)c2n1 , please.
Ans: 4.9

====

ASSAY_EXPLANATION: Efflux ratio of permeability of the compound across MDCK cells
Type: ADME, cell-based, Canis lupus familiaris
CONDITION_SET: dog
RECORDED_ENDPOINT: efflux ratio

Q: Any idea what efflux ratio was measured for Cc1nc(N)c2nnn(C[C@H]3CN(Cc4nccs4)CCO3)c2n1 ?
Ans: 3.5

====

ASSAY_EXPLANATION: Intrinsic clearance in rat liver microsomes
Type: ADME, Microsome
CONDITION_SET: liver microsomes, read-out: CLH
# log10(microsomal CLint) annotations
Log10 applied to microsomal CLint; unit prior to transform: µL/min/mg.

Consider the reported log10(microsomal CLint) for these compounds:
> print(dat)
                                   compound  quantitative.readout
1  Cc1nc(N)c2nnn(C[C@H]3CN(Cc4cc(F)cc(F)c4)CCO3)c2n1                  1.90
2  Nc1nc(C2CC2)nc2c1nnn2C[C@H]1CN(Cc2nccs2)CCO1                  1.70
3  Nc1nc(C2CC2)nc2c1nnn2C[C@@H]1CCN(Cc2nccs2)C1                  2.36

Q: Requested read-out: log10(microsomal CLint). Entry: Cc1ccnc(N2CCCC(Cn3nnc4c(N)nc(C5CC5)nc43)C2)n1 (stereo unspecified)
Ans: 2.80

Q: Quick one: log10(microsomal CLint) for Nc1nc(C2CC2)nc2c1nnn2C[C@H]1CN(Cc2ncccn2)CCO1 ?
Ans: 1.88

Q: What does the record list as log10(microsomal CLint) for Nc1nc(C2CC2)nc2c1nnn2CC1CCCOC1 (stereo unspecified) ?
Ans: 1.54

====

ASSAY_EXPLANATION: Oral bioavailability in rat
Format: ADME, organism-based
CONDITION_SET: in vivo
Please mark true (1) if the recorded bioavailability is equal to or greater than 40%, and false (0) if it falls below.

Below are worked cases with known answers.
> print(dat)
                            chemical.string      label
1       CCc1nc(Cn2nnc3c(N)nc(C4CC4)nc32)cs1  false (0)
2  Nc1nc(C2CC2)nc2c1nnn2C[C@H]1CN(Cc2nccs2)CCO1  false (0)
3  Cc1nc(N)c2nnn(C[C@H]3CN(Cc4nccs4)CCO3)c2n1   true (1)

Q: Is bioavailability for CCc1csc(CN2CCO[C@@H](Cn3nnc4c(N)nc(C)nc43)C2)n1 at or above 40%?
Ans: true (1)

Q: Check this compound for bioavailability at or above 40%: Cc1nc(N)c2nnn(C[C@H]3CN(Cc4cc(F)cc(F)c4)CCO3)c2n1
Ans: false (0)

Q: Decide: is the reported value of bioavailability for Nc1nc(C(F)(F)F)nc2c1nnn2C[C@H]1CCCO1 equal to or greater than 40%?
Ans: false (0)
